# run.description: Compound stability in rat liver microsomes
# Assay type: in vitro ADME
# condition.parameters: liver microsomes, pH 7.4; in vivo CLint extrapolated from rat liver microsome incubation
readout.type: CLint scaled at 5 μM
Put down the number, then write its unit next to it.

Examples with their reported CLint scaled at 5 μM follow.
smiles.input	readout.type	observed.result
Cn1nnc2cc(Nc3ncc(Cl)c(NC4CCN(c5ccc(C#N)nn5)CC4)n3)ccc21	CLint scaled at 5 μM	89.4 mL/min/kg
CC(C)(O)Cn1nnc2cc(Nc3ncc(Cl)c(NC4CCN(c5ccc(C#N)cn5)CC4)n3)ccc21	CLint scaled at 5 μM	14.6 mL/min/kg
CC(C)(O)Cc1cnc2cc(Nc3ncc(Cl)c(NC4CCN(c5ccc(C#N)nn5)CC4)n3)ccn12	CLint scaled at 5 μM	131 mL/min/kg

[Q] May I ask what CLint scaled at 5 μM has been recorded for N#Cc1ccc(N2CCC(Nc3nc(Nc4ccn5ccnc5c4)ncc3Cl)CC2)nn1 ?
[A] 75.4 mL/min/kg

[Q] Quick one: Cc1nnc2cc(Nc3ncc(Cl)c(NC4CCN(c5ccc(C#N)nn5)CC4)n3)ccn12
[A] 30 mL/min/kg

[Q] Quick one: CC(C)(O)c1nnc2cc(Nc3ncc(Cl)c(NC4CCN(c5ccc(C#N)cn5)CC4)n3)ccn12
[A] 44.7 mL/min/kg

[Q] Quick one: CC(C)(O)c1cnc2cc(Nc3ncc(Cl)c(NC4CCN(c5ccc(C#N)cn5)CC4)n3)ccn12
[A] 130 mL/min/kg

[Q] Quick one: Cc1nnc2cc(Nc3ncc(Cl)c(NC4CCN(c5ccc(C#N)cn5)CC4)n3)cnn12
[A] 54.9 mL/min/kg

----------
Here's what we have: pIC50 numbers for Aurora-A (h) (Homo sapiens, UniProt O14965).
Kindly note that pIC50 refers to -log10 of the concentration in mol/L and answer with the value alone.

compound	observed.result
Cc1cn2ccc(Nc3ncc(Cl)c(NC4CCN(c5ccc(C#N)nn5)CC4)n3)cc2n1	6.33
CC(O)Cn1cnc2cc(Nc3ncc(Cl)c(NC4CCN(c5ccc(C#N)cn5)CC4)n3)ccc21 (stereo not shown)	6.95
CC(C)(O)c1nnc2cc(Nc3ncc(Cl)c(NC4CCN(c5ccc(C#N)cn5)CC4)n3)ccn12	6.92

[Q] Give Aurora-A (h) (Homo sapiens, UniProt O14965) pIC50 for Cc1cnc2cc(Nc3ncc(Cl)c(NC4CCN(c5ccc(C#N)nn5)CC4)n3)ccn12
[A] 6.55

----------
# run.description: Pharmacokinetics after intravenous and oral administration in rats
# Format: in vivo
# condition.parameters: rat, plasma, oral (generally 5 or 10 mg/kg) versus iv dosing, read-out: F (oral bioavailability)
Examples of molecules with documented bioavailability follow.
Quick note: give the figure in %, leave out the unit.

Examples with their reported bioavailability follow.
molecule	bioavailability [%]
Cc1cnc2cc(Nc3ncc(Cl)c(NC4CCN(c5ccc(C#N)cn5)CC4)n3)cnn12	37
CC(C)(O)Cc1nc2ccc(Nc3ncc(Cl)c(NC4CCN(c5ccc(C#N)nn5)CC4)n3)cn2n1	42.1
CCC1CN(c2ccc(C#N)cn2)CCC1Nc1nc(Nc2ccn3c(C)nnc3c2)ncc1Cl (stereo not shown)	48.2
CC(C)(O)c1nc2cc(Nc3ncc(Cl)c(NC4CCN(c5ccc(C#N)cn5)CC4)n3)ccn2n1	52

[Q] May I ask what bioavailability has been recorded for N#Cc1ccc(N2CCC(Nc3nc(Nc4cnn5ccnc5c4)ncc3Cl)CC2)nc1 ?
[A] 79.4

[Q] Quick one: CC(C)(O)c1nc2cc(Nc3ncc(Cl)c(NC4CCN(c5ccc(C#N)nn5)CC4F)n3)ccn2n1 (stereo not shown)
[A] 4.5

[Q] Quick one: CCC1CN(c2ccc(C#N)cn2)CCC1Nc1nc(Nc2ccn3c(C)cnc3c2)ncc1Cl (stereo not shown)
[A] 50.2
